Values were extracted from patent US11352350B2.

- Measurement target: IRAK4 (Homo sapiens (Human), UniProt Q9NWZ3)
- Sequence (Q9NWZ3 whole entry): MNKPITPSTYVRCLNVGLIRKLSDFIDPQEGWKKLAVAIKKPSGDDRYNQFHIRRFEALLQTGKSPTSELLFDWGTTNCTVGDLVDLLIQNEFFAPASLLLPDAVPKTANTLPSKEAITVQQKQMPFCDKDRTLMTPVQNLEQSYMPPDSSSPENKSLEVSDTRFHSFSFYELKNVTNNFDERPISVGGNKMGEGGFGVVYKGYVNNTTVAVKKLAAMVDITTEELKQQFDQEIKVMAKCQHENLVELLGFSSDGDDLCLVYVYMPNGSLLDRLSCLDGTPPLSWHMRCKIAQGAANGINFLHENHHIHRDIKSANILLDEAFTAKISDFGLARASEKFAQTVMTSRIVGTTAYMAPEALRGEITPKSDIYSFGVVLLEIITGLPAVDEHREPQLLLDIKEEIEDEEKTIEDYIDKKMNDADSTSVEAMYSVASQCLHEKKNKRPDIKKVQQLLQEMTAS
- Procedure details: IRAK4 WB degradation (DC50)
- Type: cell-based
Experimental readout: DC50 (nM)
Provide the reading as a plain figure in nM.

Query :: // map O=C1CCC(N2C(=O)c3cccc(NCCCOC4CCN(C[C@H]5CC[C@H](n6cc(NC(=O)c7cnn8ccc(N9CCOCC9)nc78)c(C(F)F)n6)CC5)CC4)c3C2=O)C(=O)N1 (stereo partly shown) to recorded DC50 (system: IRAK4 (Homo sapiens (Human), UniProt Q9NWZ3))
Result :: 130

Query :: Request: DC50, test system IRAK4 (Homo sapiens (Human), UniProt Q9NWZ3), entry CN(CCCOCCNc1cccc2c1C(=O)N(C1CCC(=O)NC1=O)C2=O)C[C@H]1CC[C@H](n2cc(NC(=O)c3coc(-c4ccnc(NCC5CC5)c4)n3)c(C(F)F)n2)CC1 (stereo partly shown)
Result :: 78

Query :: Any idea what DC50 came out for Cn1c(=O)n([C@H]2CCC(=O)NC2=O)c2cccc(CCCOC3CCN(CC4CCC(n5cc(NC(=O)c6cnn7ccc(N8CCOCC8)nc67)c(C(F)F)n5)CC4)CC3)c21 (stereo partly shown) on IRAK4 (Homo sapiens (Human), UniProt Q9NWZ3)?
Result :: 3

Query :: Item: CN(C[C@H]1CC[C@H](n2cc(NC(=O)c3coc(-c4ccnc(NCC5CC5)c4)n3)c(C(F)F)n2)CC1)C1CCN(Cc2cccc3c2n(C)c(=O)n3C2CCC(=O)NC2=O)CC1 (stereo partly shown) Test system: IRAK4 (Homo sapiens (Human), UniProt Q9NWZ3) Read-out: DC50 Value: ?
Result :: 23
